- target of assay: alpha2C receptor (Homo sapiens)
- Sequence (P18825 1-462): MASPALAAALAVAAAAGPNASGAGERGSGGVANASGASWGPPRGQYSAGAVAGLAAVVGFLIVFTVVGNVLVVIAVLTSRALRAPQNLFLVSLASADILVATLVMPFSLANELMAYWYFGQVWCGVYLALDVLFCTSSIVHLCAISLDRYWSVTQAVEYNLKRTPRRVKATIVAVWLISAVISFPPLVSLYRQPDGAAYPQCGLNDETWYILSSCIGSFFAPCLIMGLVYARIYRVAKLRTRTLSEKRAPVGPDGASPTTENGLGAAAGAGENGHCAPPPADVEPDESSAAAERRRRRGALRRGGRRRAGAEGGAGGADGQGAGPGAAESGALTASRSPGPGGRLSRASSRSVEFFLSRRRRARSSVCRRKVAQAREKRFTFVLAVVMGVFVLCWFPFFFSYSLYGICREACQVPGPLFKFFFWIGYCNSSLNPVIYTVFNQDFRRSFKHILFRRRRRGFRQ
- experimental details: RSAT assay, alpha2C receptor
- condition notes: transfected NIH-3T3 cells with Gq/i5, ND = not determinable at concentrations less than 10 micromolar, read-out: Alpha 2C potency (EC50)
- Description: Receptor Selection and Amplification Technology (RSAT) Assay The RSAT assay measures a receptor-mediated loss of contact inhibition that results in selective proliferation of receptor-containing cells in a mixed population of confluent cells. The increase in cell number is assessed with an appropriate transfected marker gene such as β-galactosidase, the activity of which can be easily measured in a 96-well format. Receptors that activate the G protein, Gq, elicit this response. […]
For each of the compounds below, state its pEC50.
One number for each entry, as −log10 of the molar value.

// solved cases for pEC50 follow
compound | pEC50
c1ccc(C(c2cnc[nH]2)c2cccc3cccnc23)nc1 (stereo not shown) | 6.56
c1cncc(C(c2cnc[nH]2)c2cccc3c2OCC3)c1 (stereo not shown) | 6.80
c1cncc(C(c2cnc[nH]2)c2cccc3cccnc23)c1 (stereo not shown) | 6.91

Proceed to the following item.
Value (pEC50, alpha2C receptor (Homo sapiens)) for record c1ccc(C(c2cnc[nH]2)c2cccc3c2OCC3)nc1 (stereo not shown) = 6.80

====

- target of assay: alpha2A receptor (Homo sapiens)
- Construct: expressed in transfected cells; host or cells: NIH-3T3 cells
- Sequence (P08913 whole entry): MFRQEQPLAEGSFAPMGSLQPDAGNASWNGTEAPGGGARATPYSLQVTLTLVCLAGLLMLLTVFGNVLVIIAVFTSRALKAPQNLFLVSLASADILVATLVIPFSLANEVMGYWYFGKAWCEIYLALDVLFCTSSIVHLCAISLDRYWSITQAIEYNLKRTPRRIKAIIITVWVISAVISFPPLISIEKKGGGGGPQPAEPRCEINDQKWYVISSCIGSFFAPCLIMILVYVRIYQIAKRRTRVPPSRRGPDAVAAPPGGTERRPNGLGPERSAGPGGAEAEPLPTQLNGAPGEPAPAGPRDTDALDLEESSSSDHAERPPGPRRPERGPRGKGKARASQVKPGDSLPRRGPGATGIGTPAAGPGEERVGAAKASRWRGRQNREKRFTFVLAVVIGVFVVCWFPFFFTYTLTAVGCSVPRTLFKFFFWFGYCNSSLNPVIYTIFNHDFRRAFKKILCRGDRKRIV
- experimental details: RSAT assay, alpha2A receptor
- Type: cell-based
- condition notes: ratio of maximal effect to that of standard full agonist brimonidine (UK14304), value in parentheses
outcome measure: Alpha 2A intrinsic activity (efficacy)
One number for each entry.

compound | Alpha 2A intrinsic activity (efficacy)
c1ccc(C(c2cnc[nH]2)c2cccc3c2OCC3)nc1 (stereo not drawn) | 0.23
c1ccc(C(c2cnc[nH]2)c2cccc3cccnc23)nc1 (stereo not drawn) | 0.15
c1cncc(C(c2cnc[nH]2)c2cccc3ncccc23)c1 (stereo not drawn) | 0.12

Value sought for every listed compound: Alpha 2A intrinsic activity (efficacy).
1. c1ccc(C(c2cnc[nH]2)c2cccc3ncccc23)nc1 (stereo not drawn)
2. c1cncc(C(c2cnc[nH]2)c2cccc3cccnc23)c1 (stereo not drawn)
3. c1cncc(C(c2cnc[nH]2)c2cccc3c2OCC3)c1 (stereo not drawn)

0.13
0.50
0.46

====

- target of assay: alpha2C receptor (Homo sapiens, UniProt P18825)
- Construct: expressed in transfected cells; host or cells: NIH-3T3 cells
- experimental details: RSAT assay, alpha2C receptor
- Format: cell-based
- condition notes: ratio of maximal effect to that of standard full agonist brimonidine (UK14304), value in parentheses
Mark true (1) only for Alpha 2C intrinsic activity (efficacy) values smaller than 0.3; exact matches and larger values are false (0).

compound | group label
c1ccc(C(c2cnc[nH]2)c2cccc3cccnc23)nc1 (stereo not shown) | false (0)

Quick check: Alpha 2C intrinsic activity (efficacy) of c1cncc(C(c2cnc[nH]2)c2cccc3cccnc23)c1 (stereo not shown) under 0.3? false (0)

Find out if reported Alpha 2C intrinsic activity (efficacy) for c1cncc(C(c2cnc[nH]2)c2cccc3ncccc23)c1 (stereo not shown) is less than 0.3 false (0)

Please let me know if c1cncc(C(c2cnc[nH]2)c2cccc3c2OCC3)c1 (stereo not shown) shows Alpha 2C intrinsic activity (efficacy) below 0.3. false (0)

Is the reported Alpha 2C intrinsic activity (efficacy) for c1ccc(C(c2cnc[nH]2)c2cccc3ncccc23)nc1 (stereo not shown) strictly below 0.3? true (1)

Does c1cc(C(c2ccncc2)c2cnc[nH]2)c2cccnc2c1 (stereo not shown) have Alpha 2C intrinsic activity (efficacy) strictly under 0.3? true (1)

hey, is Alpha 2C intrinsic activity (efficacy) for c1ccc(C(c2cnc[nH]2)c2cccc3c2OCC3)nc1 (stereo not shown) lower than 0.3 or not? false (0)
